System: HEK293
protocol: Cytotoxic Profiling of Annotated Libraries Using Quantitative High-Throughput Screening (AID 1296008); further: nearly all actives have a fitted effect of over 60% in size; on max response: on the % scale 0 is the no-effect control and ±100 the full control effect
recorded.conditions: Five cell lines viability, CellTiter-Glo ATP luminescence, 48-72 h; active compounds read low
Inconclusive results are not listed.
reported.metric: max response (%)
One number for each entry, in %.

Example entries and their recorded answers appear below.
CC1CCC2(C(=O)O)CCC3(C)C(=CCC4C5(C)CCC(OC(=O)/C=C/c6ccccc6)C(C)(C)C5CCC43C)C2C1C (stereo not drawn) | -4.63
CC(C)C(NC(=O)c1ccc2ccccc2n1)C(=O)NC(CC(=O)O)C(=O)COc1c(F)cccc1F (stereo not drawn) | -1.52
CC1=CC2/C=C(\C)CC[C@@H](O)[C@@H](O)[C@@H]3O[C@@H]3C(=O)[C@]23C(=O)N[C@@H](CC(C)C)[C@@H]3[C@@H]1C (stereo partly drawn) | 1.09
OC[C@H]1O[C@@H](O[C@H]2[C@H](OCc3ccccc3)O[C@H](CO[C@@H]3OC[C@@H](O)[C@H](O)[C@H]3O)[C@@H](O)[C@@H]2O)[C@H](O)[C@@H](O)[C@@H]1O | 0.36
C=C(C)C1CCC(C)C12CC(O)C1(C)OC1C2OC(=O)C(N)CCC(=O)O (stereo not drawn) | -1.87

Could you report max response for every entry in the following list?
1. O=C1OCC(c2ccccc2)=C1Cc1ccccc1
2. Cc1noc(-c2ccc(-c3ccc(CC(=O)O)cc3)cc2)c1NC(=O)O[C@H](C)c1ccccc1
3. COC(=O)C1=CO[C@@H](O[C@@H]2O[C@H](CO)[C@@H](O)[C@H](O)[C@H]2O)C2C1C(=O)C[C@H]2C (stereo partly drawn)
4. COc1c2ccoc2cc2oc(CO[C@@H]3O[C@H](CO)[C@@H](O)[C@H](O)[C@H]3O)cc(=O)c12
5. O=C(NCc1cccc(O)c1)Nc1nc(-c2ccncc2)cs1
6. O=C(O)[C@H](Cc1ccc(Nc2nccc3ccncc23)cc1)NC1=C(Br)C(=O)C12CCCCC2
7. COc1ccc(/C=C\C(=O)O)c(O[C@@H]2O[C@H](CO)[C@@H](O)[C@H](O)[C@H]2O)c1

1. 0.652
2. -14
3. -7.74
4. 1.44
5. -21.2
6. -11.7
7. -0.642

Could you report max response for every entry in the following list?
1. CC(C)CC1NC(=O)C(C)NC(=O)C(CC(C)C)OC(=O)CCCNC1=O (stereo not drawn)
2. OC[C@@]1(O)CO[C@@H](OC[C@H]2O[C@@H](Oc3c[nH]c4ccccc34)[C@H](O)[C@@H](O)[C@@H]2O)[C@@H]1O
3. CC/C=C\C/C=C\C/C=C\CCCCCCCC(=O)OCC(O)COC1OC(CO)C(O)C(O)C1O (stereo not drawn)
4. COc1cc2c(cc1OC)N1C(=O)C[C@]34C=CCN5CC[C@@H]2[C@@H](CC3)[C@]514
5. O=C(NOCC(O)CO)c1ccc(F)c(F)c1Nc1ccc(I)cc1F (stereo not drawn)
6. CC(C)[N+]1(C)C2CCC1CC(OC(=O)C(CO)c1ccccc1)C2 (stereo not drawn)

1. -5.55
2. -21.5
3. -1.09
4. -26.4
5. 2.15
6. -4.72

====

System: Tov-21-G
protocol: Primary qHTS to identify gynecologic anti-cancer compounds using libraries of approved drugs and bioactive compounds (AID 1345084); further: nearly all actives have a fitted effect of over 55% in size
recorded.conditions: Gynecologic cancer cell panel viability, ATPlite luminescence, 48 h; series mostly up to 57.5 µM
Inconclusive results are not listed. Calls of active or inactive are those of the source. The call rests on the fitted dose curve; in most records, active means well fitted cell-killing curve with a large enough effect; inconclusive means small, poorly fitted or top-dose-only effect, or effect the other way; inactive means flat fitted curve, though single readings scatter.
The categories you may choose from are 1.0 = active, 0.0 = inactive

Consider the worked cases shown below.
CC(=O)O[C@H]1CC[C@@]2(C)C(CC[C@@H](C)[C@]23Cc2c(O)cc4c(c2O3)CN([C@@H](CCC(=O)O)C(=O)O)C4=O)C1(C)C (stereo partly drawn) | 0.0
CC1=CC(=O)CC(C)(CO)C1(O)/C=C/C(C)O[C@@H]1O[C@H](CO)[C@@H](O)[C@H](O)[C@H]1O (stereo partly drawn) | 0.0
C[C@@H]1CC[C@]2(C(=O)O)CC[C@]3(C)C(=CCC4[C@@]5(C)C[C@@H](O)[C@H](O)[C@@](C)(CO)C5CC[C@]43C)C2[C@]1(C)O (stereo partly drawn) | 0.0

Tell me the recorded outcome of this test for c1ccc(N2CCN(CCc3nn[nH]n3)CC2)cc1 .
0.0

What about this molecule? C=CC(=O)Nc1cc(Nc2ncc(Cl)c(-c3c[nH]c4ccccc34)n2)c(OC)cc1N(C)CCN(C)C
1.0

What about this molecule? C/C=C/c1cc(OC)c2c(c1)[C@@H](C)[C@@H](c1ccc(O)c(OC)c1)O2
0.0

What about this molecule? CC1CCC2C(C)(C)[C@@H](O)CC[C@]2(C)C12Cc1c(O)cc3c(c1O2)CN(C(CCC(=O)O)C(=O)O)C3=O (stereo partly drawn)
0.0

What about this molecule? C[C@]1(CO)CCC[C@]2(C)C3=C(CCC12)COC3 (stereo partly drawn)
0.0

====

System: KB-3-1
protocol: Cytotoxic Profiling of Annotated Libraries Using Quantitative High-Throughput Screening (AID 1296008); further: nearly all actives have a fitted effect of over 60% in size
recorded.conditions: Five cell lines viability, CellTiter-Glo ATP luminescence, 48-72 h
Protocol: Cell-based phenotypic screening is a commonly used approach to discover biological pathways, novel drug targets, chemical probes and high-quality hit-to-lead molecules. […] A pintool (Kalypsys) was used to transfer 23 nL of compound solution to the 1536-well assay plates. […] Plates were left at room temperature for 10 min before imaging the ATP-coupled luminescence using a ViewLux microplate imager (PerkinElmer, Waltham, MA).
Records with an inconclusive call do not appear. The source made the active and inactive calls. Calls come from the whole dose curve; as a rule, active = well fitted inhibition curve with a large enough effect; inconclusive = small, poorly fitted or top-dose-only effect; inactive = flat fitted curve, though single readings scatter.
The categories you may choose from are active, inactive

Consider the worked cases shown below.
CCCCNc1ncc2c(-c3ccc(F)cc3)nn(CC3CCC(N)CC3)c2n1 (centres undefined) | active
COc1cc(C(=O)NC2CCN(C)CC2)c(F)cc1Nc1ncc2c(n1)N(C1CCCC1)CC(F)(F)C(=O)N2C | active
COc1cc2nc(N3CCCC3)nc(NCCCCCN3CCCC3)c2cc1OC | active
CC(C)=C/C=C\[C@H](C)[C@H]1CC[C@]2(C)C[C@@H]3C(C)=CC(=O)C3/C(CO)=C\C[C@@H]12 (some centres undefined) | inactive
Cc1cc(OCc2nnc(SC3CCCC3)n2-c2cccnc2)ccc1-c1ccc(S(C)(=O)=O)cc1 | active
C=C(C)C(=O)O[C@H]1C[C@@](C)(O)C(=O)CC(O)/C(C)=C\[C@H]2OC(=O)C(=C)[C@H]12 (some centres undefined) | inactive

Tell me the recorded outcome of this test for COc1cc(C(=O)NC2CCN(C)CC2)ccc1Nc1ncc2c(n1)N(C1CCCC1)CC(F)(F)C(=O)N2C .
active

What about this molecule? COC(=O)C1=COC(OC2OC(CO)C(O)C(O)C2O)C2C1C=CC2(O)CO (centres undefined)
inactive

What about this molecule? COc1cc2c3c(cc4ccccc4c3c1O)NC2=O
inactive

====

Test system: HeLa
protocol: Primary qHTS to identify gynecologic anti-cancer compounds using libraries of approved drugs and bioactive compounds (AID 1345084); further: nearly all actives have a fitted effect of over 55% in size
recorded.conditions: Gynecologic cancer cell panel viability, ATPlite luminescence, 48 h; series mostly up to 57.5 µM
Results filed as inconclusive are left out. Activity calls are given as the source filed them. Calls come from the whole dose curve; as a rule, active = well fitted cell-killing curve with a large enough effect; inconclusive = small, poorly fitted or top-dose-only effect, or effect the other way; inactive = flat fitted curve, though single readings scatter.
The categories you may choose from are active, inactive

Consider the worked cases shown below.
COC(=O)C1=CO[C@@H](O[C@@H]2O[C@H](CO)[C@@H](O)[C@H](O)[C@H]2O)[C@@H]2C(COC(C)=O)=C[C@H](O)[C@H]12 | inactive
CCOCCOC(=O)/C=C/c1ccc(OC)cc1 | inactive
C=C[C@@]12COC(=O)C(=C)C1[C@@H](O)[C@H](C(=C)C(=O)OC)[C@@H](OC(=O)C(=C)CO)C2 (some centres undefined) | inactive
O=C(CSc1nc2c(c(=O)n1-c1ccccc1)SCC2)Nc1ccc(-c2ccccc2)cn1 | active
CN(c1ccccc1CNc1nc(Nc2ccc3c(c2)CC(=O)N3)ncc1C(F)(F)F)S(C)(=O)=O | active
CC1CCC23COC(=O)C2=CC(O)CC3C1(C)CCC1=CC(O)OC1=O (centres undefined) | inactive
CCCOc1ccc(-c2nc(OC)c3ccccc3n2)cc1 | inactive
C=C(CO[C@@H]1O[C@H](CO[C@@H]2OC[C@](O)(CO)[C@H]2O)[C@@H](O)[C@H](O)[C@H]1O)C1Cc2cc(C(C)=O)ccc2O1 (some centres undefined) | inactive

Tell me the recorded outcome of this test for CC(C)(C(=O)NCC(F)(F)C(F)(F)F)C(=O)NC1C(=O)Nc2ccccc2-c2ccccc21 (centres undefined) .
inactive

What about this compound? CC1(O)CC(O)C2(O)C=COC(O[C@@H]3O[C@H](CO)[C@@H](O)[C@H](O)[C@H]3O)C12 (some centres undefined)
inactive

What about this compound? C=C1CC2C(C)(CCC(=O)O)C(C(C)(C)O)CCC2(C)C2C(=O)OC(C)(C(=O)OC)C(=O)C12C (centres undefined)
inactive

What about this compound? CN1CCN(C2CCC(n3cc(-c4ccc(Oc5ccccc5)cc4)c4c(N)ncnc43)CC2)CC1 (centres undefined)
active

What about this compound? C=CC1(C)C=C2CCC3C(C)(C)C(O[C@@H]4O[C@@H](CO)[C@H](O)[C@H]4O)CCC3(C)C2CC1O[C@@H]1O[C@H](C)[C@H](O)[C@H](O)[C@H]1O (some centres undefined)
inactive

What about this compound? CC[C@H](C)[C@H](NC(=O)[C@H]([C@@H](C)CC)N(C)C(C)=O)C(=O)N[C@H](C(=O)N[C@@H](CC(C)C)C(=O)[C@@]1(C)CO1)[C@@H](C)O
active

What about this compound? CCC(COC)n1nnc2c(Nc3ccc(OC)cc3C)nc(C)cc21 (centres undefined)
inactive

What about this compound? CCN(CC)Cc1ccc(C(=O)N(CCc2ccccc2OC)[C@@H]2CCNC2)cc1
inactive

What about this compound? Cc1ccc(-c2ccc3c(ccc4sc5c(c43)NC[C@@H](C)NC5=O)n2)cn1
inactive

What about this compound? Cc1[nH]c2ccccc2c1C1=C(NCCc2ccc(F)cc2)C(=O)N(C)C1=O
inactive
